Biological target: UniProtKB Q04206
Sequence (Q04206 whole entry): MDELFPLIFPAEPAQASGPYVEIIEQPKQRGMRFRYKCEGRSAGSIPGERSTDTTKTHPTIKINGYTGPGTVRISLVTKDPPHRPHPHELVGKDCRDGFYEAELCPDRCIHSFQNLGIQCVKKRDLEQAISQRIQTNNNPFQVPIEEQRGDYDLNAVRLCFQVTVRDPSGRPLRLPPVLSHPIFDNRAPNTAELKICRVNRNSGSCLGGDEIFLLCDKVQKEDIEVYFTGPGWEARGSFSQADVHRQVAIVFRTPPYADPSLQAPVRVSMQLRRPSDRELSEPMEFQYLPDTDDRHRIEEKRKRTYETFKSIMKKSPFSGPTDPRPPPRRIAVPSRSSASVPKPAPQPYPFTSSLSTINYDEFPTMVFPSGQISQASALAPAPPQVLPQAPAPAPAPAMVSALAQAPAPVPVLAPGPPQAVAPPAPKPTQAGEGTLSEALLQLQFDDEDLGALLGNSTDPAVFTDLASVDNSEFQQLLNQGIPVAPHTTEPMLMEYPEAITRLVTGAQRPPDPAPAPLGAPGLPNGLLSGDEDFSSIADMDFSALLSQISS
Experiment: ELISA NF-κB p65 inhibition assay
Format: cell-based
pIC50: −log10 of the molar value.
experimental_endpoint: pIC50

INSERT INTO results (molecule, recorded_result) VALUES
  ('COC(=O)[C@@]12OC[C@]34[C@H]([C@@H](O)[C@@H]1O)[C@@]1(C)CC(=O)C(O)=C(C)[C@@H]1C[C@H]3OC(=O)[C@H](OC(=O)CC(C)C)[C@@H]24', 5.38),
  ('COC(=O)[C@@]12OC[C@]34[C@H]([C@@H](O)[C@@H]1O)[C@@]1(C)CC(=O)C(O)=C(C)[C@@H]1C[C@H]3OC(=O)[C@H](OC(=O)/C=C(\C)C(C)C)[C@@H]24 [Compound 5, bruceantin]', 4.45);
